A collection of compounds and their measured IC50
Test system: HT-29 cells
Experiment: HT-29 necroptosis cell viability assay (TNF-α/SMAC mimetic/zVAD-FMK, CellTiter-Glo)
Type: cell-based
Conditions: Homo sapiens, HT-29, HT-29 necroptosis cell viability, IC50 class symbols; read-out: Activity

Guide cases for IC50, answers given:
COMPOUND_STRUCTURE_STRING: CC1(N)CN(c2cc(Oc3ccc(-n4ncn(Cc5c(F)cccc5F)c4=O)cc3F)c(C#N)cn2)C1
IC50: 100 to 1000 nM
--
COMPOUND_STRUCTURE_STRING: C[C@@H]1[C@H](C#N)CN1c1nccc(Oc2ccc(-n3ncn(Cc4c(F)cccc4F)c3=O)cc2F)c1F
IC50: < 100 nM
--
COMPOUND_STRUCTURE_STRING: Cc1c(Oc2ccc(-n3ncn(Cc4c(F)cccc4F)c3=O)cc2F)ccnc1N1CC(C)(N)C1
IC50: < 100 nM

Form field: reported IC50 of `CCOC1CN(c2cc(Oc3ccc(-n4ncn(Cc5c(F)cccc5F)c4=O)cc3F)c(C)cn2)C1`
< 100 nM

Here is the next compound: `CC1(N)CN(c2cc(Oc3ccc(-n4ncn(Cc5c(F)cccc5F)c4=O)cc3F)c(Cl)cn2)C1`
< 100 nM

Next up: `C[C@H]1[C@H](C#N)CN1c1cc(Oc2ccc(-n3ncn(Cc4c(F)cccc4F)c3=O)cc2F)c(Cl)cn1`
< 100 nM

What do you have for `CC(C)(C)Nc1cc(Oc2ccc(-n3ncn(Cc4c(F)cccc4F)c3=O)cc2)ccn1` ?
100 to 1000 nM

====

# IC50 listing for each entry below
Tested on: HT-29 cells
Experiment: HT-29 necroptosis cell viability assay (TNF-α/SMAC mimetic/zVAD-FMK, CellTiter-Glo)
Assay type: cell-based
Details: Homo sapiens, HT-29, HT-29 necroptosis cell viability, IC50 class symbols; read-out: Activity

COMPOUND: CC(C)(C)OC(=O)N1CCC12CN(c1cc(Oc3ccc(-n4ncn(Cc5c(F)cccc5F)c4=O)cc3)ccn1)C2
IC50: 1000 to 10000 nM
--
COMPOUND: O=c1n(Cc2c(F)cccc2F)cnn1-c1ccc(Oc2cc(N3CCOCC3)ncc2F)c(F)c1
IC50: < 100 nM
--
COMPOUND: O=c1n(Cc2c(F)cccc2F)cnn1-c1ccc(Oc2ccnc(N3CC4(CCCO4)C3)c2)cc1
IC50: < 100 nM
--
COMPOUND: CCOC1CN(c2ncnc(Oc3ccc(-n4ncn(Cc5c(F)cccc5F)c4=O)cc3)c2F)C1
IC50: 100 to 1000 nM
--
COMPOUND: C[C@@H](Nc1cc(Oc2ccc(-n3ncn(Cc4c(F)cccc4F)c3=O)cc2)ccn1)C1CCC1
IC50: 100 to 1000 nM

# get_value(readout= IC50, system= HT-29 cells) for `Cc1nc(C(C)(C)O)sc1Oc1ccc(-n2ncn(Cc3cnccc3Cl)c2=O)cc1F`
100 to 1000 nM

Consider next the compound `CCOC1CN(c2cc(Oc3ccc(-n4ncn(Cc5c(F)cccc5F)c4=O)cc3F)c(Cl)cn2)C1` in the same way.
< 100 nM

Field entry: `Cc1nc(N2CC3(CCO3)C2)sc1Oc1ccc(-n2ncn(Cc3c(F)cccc3F)c2=O)cc1`
< 100 nM

Ok, now `O=c1n(Cc2c(F)ccc(F)c2F)cnn1-c1ccc(Oc2ccnc(N3CC4(CCOCC4)C3)c2)cc1`
100 to 1000 nM

# iterate: `CCOC1CN(c2nccc(Oc3ccc(-n4ncn(Cc5c(F)cccc5F)c4=O)cc3)c2N)C1`
100 to 1000 nM

Follow-up entry: `Cc1nc(CC2CNC2)sc1Oc1ccc(-n2ncn(Cc3c(F)cccc3F)c2=O)cc1`
< 100 nM

Note, next up: `CCOC1CN(c2cc(Oc3ccc(-n4ncn(Cc5c(F)cccc5F)c4=O)cc3)c(F)cn2)C1`
< 100 nM

Next: `CC1(C#N)CN(c2cc(Oc3ccc(-n4ncn(Cc5c(F)cccc5F)c4=O)cc3)c(F)cn2)C1`
100 to 1000 nM

Similarly, Cc1nc(C(O)C(F)F)sc1Oc1ccc(-n2ncn(Cc3c(F)cccc3F)c2=O)cc1F (stereo not drawn) ?
< 100 nM

Check `C[C@H]1[C@@H](N)CN1c1cc(Oc2ccc(-n3ncn(Cc4c(F)cccc4F)c3=O)cc2F)c(Cl)cn1` too.
< 100 nM
